System: HEK-293T
Assay: Multiplex assay against HEK293T
Format: toxicity, cell-based
Conditions: human, 48 h, 1 µM, compound concentration 1 uM, replicate 2
Measurement type: Population Normal (%)
Give the number; % is assumed, so skip it.

Cc1ccc(-c2ccc(F)cc2COc2ccc(CCC(=O)O)cc2)cc1; 97
O=C(NCC(=O)N1CC[C@H](N[C@H]2CC[C@@](O)(c3ccc(-c4ncccn4)cn3)CC2)C1)c1cccc(C(F)(F)F)c1; 97

Briefly, Population Normal (%) measured for `C[C@H](NC(=O)c1c(C(F)F)nn(C)c1Oc1cccc(C(F)(F)F)c1)c1ccc(C(=O)O)cc1` : 95

Briefly, Population Normal (%) measured for `O=C(O)c1cc2ccccc2c(Cc2c(O)c(C(=O)O)cc3ccccc23)c1O` : 92
